Data origin: patent US7273848B2

assay_comment: Circular dichroism helicity determination
Format: physicochemical
experimental_parameters: percent helicity; free, unbound peptide 5 μM in 5 mM phosphate buffer, pH 7.4, 37° C.
No end group written: not given here.
For each record, write down the corresponding He (%) free.
Numbers only, in %.

Worked set:
substance: PVLELFENLLERLWDALQKKLK [compound 163]
He (%) free: 27
--
substance: Ac-DWLKAFYDKVAEKLKEAF-NH2 [compound 240, reference compound]
He (%) free: 16
--
substance: PVLELFENLLERGLDALQKKLK [peptide 154]
He (%) free: 13
--
substance: PVLDLFRELLNEGLEALKQKLK [compound 8]
He (%) free: 20
--
substance: LDDLLQKWAEAFNQLLKK [peptide 237, reference compound]
He (%) free: 30
--
substance: PVLDLFRELLNELLEWLKQKLK [compound 3]
He (%) free: 70
--
substance: PVLDLFRELLELLKQKLK [compound 217]
He (%) free: 52
--
substance: PVLELFENLLERLLDALQKKLK [peptide 146]
He (%) free: 97

State recorded He (%) free for all listed substances.
1. DWLKAFYDKVAEKLKEAF [peptide 244, reference compound]
2. PVLDLFRELLEELLKALKKKLK [compound 39]

Result:
9
66

====

measurement_target: LCAT (purified from human plasma) (Homo sapiens, UniProt P04180)
Construct: from tissue; host or cells: human plasma
assay_comment: LCAT activation assay
Assay type: biochemical
experimental_parameters: LCAT activation as compared with native human ApoA-I (= 100%), equivalent masses
No end group written: not given here.
parameter_measured: ACTIVITY (%) LCAT
Numbers only, in %.

Worked set:
residues: EWLEAFYKKVLEKLKELF [peptide 246, reference compound]
quantitative_result: 4
--
residues: PVLELFLNLLERLLDAWQKKLK [compound 184]
quantitative_result: 4
--
residues: PVLELFENLLERLWDALQKKLK [compound 163]
quantitative_result: 26

State recorded ACTIVITY (%) LCAT for all listed sequences.
1. PVLELFLNLLERLLDALQKKLK [compound 156]
2. PVLDLFREWLNELLEALKQKLK [compound 37]

Result:
[35, 29]

====

For each record, write down the corresponding He (%) SUVs.
assay_comment: Circular dichroism helicity determination
Format: physicochemical
experimental_parameters: percent helicity; peptide-SUV complexes (20:1 EPC:Chol., Ri=30 and Ri=50), 37° C.
Procedure: Far UV circular dichroism spectra were recorded between 190 and 260 nm (in 0.5 nm or 0.2 nm increments) with a AVIV62DS spectrometer (AVIV Associates, Lakewood, N.J., USA) equipped with a thermoelectric cell holder and sample changer. The instrument was calibrated with (+)-10-camphoric acid. […] All spectra were recorded at 37° C. […]
No end group written: not given here.

Worked set:
residues: PVLELFENLLERGLDALQKKLK [peptide 154]
result: 25%
//
residues: PVLELFENLLERLLDWLQKKLK [compound 160]
result: 75%

Now look at this one.
Problem: Would you mind telling me what He (%) SUVs value was observed for PVLDEFREKLNEALEALKQKLK [peptide 94, reference compound] ?
Result: 27%

====

measurement_target: LCAT (purified from human plasma) (Homo sapiens)
Construct: from tissue; host or cells: human plasma
Sequence (P04180 25-440): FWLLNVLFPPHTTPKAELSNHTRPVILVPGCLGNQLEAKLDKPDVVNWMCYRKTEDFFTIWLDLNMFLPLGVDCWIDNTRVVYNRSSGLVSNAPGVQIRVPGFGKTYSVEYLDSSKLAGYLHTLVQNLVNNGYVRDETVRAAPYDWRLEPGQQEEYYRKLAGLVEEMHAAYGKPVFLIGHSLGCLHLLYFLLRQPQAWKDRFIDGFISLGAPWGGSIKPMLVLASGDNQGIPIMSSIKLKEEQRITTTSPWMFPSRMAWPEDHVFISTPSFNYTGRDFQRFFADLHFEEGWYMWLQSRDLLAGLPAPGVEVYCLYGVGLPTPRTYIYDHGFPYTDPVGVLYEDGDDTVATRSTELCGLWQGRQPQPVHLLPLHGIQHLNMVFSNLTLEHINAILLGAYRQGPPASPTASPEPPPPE
assay_comment: LCAT activation assay
Assay type: biochemical
experimental_parameters: LCAT activation as compared with native human ApoA-I (= 100%), equivalent masses
No end group written: not given here.
For each record, write down the corresponding ACTIVITY (%) LCAT.
One number for each entry, in %.

Worked set:
substance: PVLDLFRNLLEELLKALEQKLK [compound 57]
parameter_measured: ACTIVITY (%) LCAT
quantitative_result: 18
//
substance: PVLDEFREKLNEELEWLKQKLK [compound 122]
parameter_measured: ACTIVITY (%) LCAT
quantitative_result: 0
//
substance: PVLELFENLLERGLDALQKKLK [peptide 154]
parameter_measured: ACTIVITY (%) LCAT
quantitative_result: 39
//
substance: PAADAFREAANEAAEAAKQKAK [compound 105]
parameter_measured: ACTIVITY (%) LCAT
quantitative_result: 1
//
substance: PVLDLFRELLNELLEALKQKKK [compound 56]
parameter_measured: ACTIVITY (%) LCAT
quantitative_result: 18

State recorded ACTIVITY (%) LCAT for all listed substances.
1. PVLDLFRELLNELWQKLK [compound 219]
2. PVLDLFREKLNEELEALKQKLK [compound 106]
3. PVLELFLNLLEKLLDALQKKLK [compound 166]
4. PVLDEFRELLNEELEALKQKLK [compound 103]
5. DWFKAFYDKVFEKFKEFF [peptide 241, reference compound]

Result:
24
0
22
1
8

State recorded ACTIVITY (%) LCAT for all listed substances.
1. PVLDLFRELLNELWEALKQKLK [compound 28]
2. PVLELFENLLEKLLDALQKKLK [compound 169]
3. Ac-PALELFKDLLEELRQKLR-NH2 [compound 202]
4. GVLDLFRELLNEGLEALKQKLK [compound 13]
5. Ac-PLLDLFRELLEELKQKLK-NH2 [compound 197]
6. Ac-PALELFKDLLEEFRQRLK-NH2 [compound 213]
7. PVLDEFREKLNELLEALKQKLK [compound 84]

Result:
1: 40; 2: 17; 3: 70; 4: 67; 5: 81; 6: 42; 7: 7
